Attribution: patent US9469618B2

- TARGET OR SYSTEM: human recombinant GSK3β (N-terminal 6His-tagged recombinant enzyme with an H350L mutation) (Homo sapiens)
- Construct: 6His (N); purchased Millipore (Billerica, Mass., USA)
- Sequence (P49841 whole entry, stated change not applied): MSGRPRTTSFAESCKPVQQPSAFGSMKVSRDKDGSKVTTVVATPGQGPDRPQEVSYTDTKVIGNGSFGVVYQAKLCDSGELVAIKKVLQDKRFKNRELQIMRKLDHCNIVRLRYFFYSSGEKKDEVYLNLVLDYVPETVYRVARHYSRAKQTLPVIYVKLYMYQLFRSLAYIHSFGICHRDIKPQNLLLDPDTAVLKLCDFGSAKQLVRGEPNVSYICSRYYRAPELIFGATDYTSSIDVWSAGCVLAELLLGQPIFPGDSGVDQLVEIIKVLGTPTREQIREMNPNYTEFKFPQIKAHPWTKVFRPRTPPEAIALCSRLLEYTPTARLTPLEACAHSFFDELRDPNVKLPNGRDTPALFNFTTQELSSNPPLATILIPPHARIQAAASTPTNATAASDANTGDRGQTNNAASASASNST
- EXPERIMENTAL DETAILS: GSK-3 assay (Z'-LYTE FRET enzymatic activity)
- Type: biochemical
- RUN PARAMETERS: 2 nM enzyme, 12.5 μM ATP, 2 μM Ser/Thr 9 peptide, 60 min at room temperature; concentration in M units; read-out: GSK-3 inhibition pEC50 average (converted)
Assign EC50 to each entry below.
Field: value (include unit after the number)

Query string: Could you share which EC50 value was measured for `O=c1sn(Cc2ccccc2)c(=O)n1CCO` ?
Result string: 1580 nM

Query string: Could you share which EC50 value was measured for O=c1sn(Cc2ccccc2)c(=O)n1CC1CCCO1 (stereo not shown) ?
Result string: 2000 nM

Query string: Could you share which EC50 value was measured for `CCn1c(=O)sn(Cc2ccccc2)c1=O` ?
Result string: 631 nM

Query string: Could you share which EC50 value was measured for CCOC(=O)Cn1c(=O)sn(C(Cc2ccccc2)C(=O)OCC)c1=O (stereo not shown) ?
Result string: 25.1 nM

====

- EXPERIMENTAL DETAILS: Thermodynamic solubility of TDZDs
- Format: physicochemical
- RUN PARAMETERS: phosphate buffered saline, aqueous buffer, thermodynamic from solid; aqueous 0.01 M PBS pH 7.4, 2 mg/mL samples, 24 hours mixing, LC-UV
- Experimental: Thermodynamic solubility was determined in duplicate from samples with a compound concentration of 2 mg/mL in aqueous 0.01 M phosphate buffered saline (PBS) pH 7.4 with a mixing period of 24 hours. Analysis and quantification was performed by LC-UV. Calibration lines were prepared for each compound from samples at of 1.0, 0.1, 0.01 and 0.001 mg/mL concentration in acetonitrile.
PROPERTY LABEL: solubility thermodynamic at 24 h (mg/mL)
Kindly answer with a numeric value in mg/mL, unit omitted.

Query string: Could you share which solubility thermodynamic at 24 h value was measured for O=c1sn(Cc2ccccc2)c(=O)n1CC1CCCO1 (centres unmarked) ?
Result string: 1.03

Query string: Could you share which solubility thermodynamic at 24 h value was measured for `O=c1sn(Cc2ccccc2)c(=O)n1CCO` ?
Result string: 1.84

Query string: Could you share which solubility thermodynamic at 24 h value was measured for CCOC(=O)Cn1c(=O)sn(C(Cc2ccccc2)C(=O)OCC)c1=O (centres unmarked) ?
Result string: 0.022

Query string: Could you share which solubility thermodynamic at 24 h value was measured for `CCn1c(=O)sn(Cc2ccccc2)c1=O` ?
Result string: 0.617
